Test system: c-Abl kinase (K562 cells)
Assay: In-vitro cell proliferation assay (MTT), K562 cells
Format: cell-based
Conditions: Homo sapiens, 10 nM
Property Measured: inhibition at 0.01 µM (%)
Express the result in % but write the number alone.

[
  {
    "Sample Smiles": "Cc1ccc(C(=O)NNC(=O)c2c(C)cccc2Cl)cc1C#Cc1ccc(NC(=O)NC2CC2)nc1",
    "inhibition at 0.01 µM / %": 83.6
  },
  {
    "Sample Smiles": "Cc1ccc(C(=O)NNC(=O)c2c(C)cccc2Cl)cc1C#Cc1ccc(NC(=O)CN(C)C)nc1",
    "inhibition at 0.01 µM / %": 82.5
  },
  {
    "Sample Smiles": "CC(=O)Nc1ccc(C#Cc2cc(C(=O)NNC(=O)c3c(C)cccc3Cl)ccc2C)cn1",
    "inhibition at 0.01 µM / %": 91.6
  }
]

Lab note: `Cc1ccc(C(=O)NNC(=O)c2ccc(CN3CCN(C)CC3)cc2)cc1C#Cc1ccc(NC(=O)C2CC2)nc1` gave inhibition at 0.01 µM of 78.6

###

Tested on: c-Abl kinase (K562 cells)
Assay: In-vitro cell proliferation assay (MTT), K562 cells
Assay type: cell-based
Conditions: Homo sapiens, 10 nM
Property Measured: inhibition at 0.01 µM
Show the value, then the unit it is measured in.

Examples with answers:
[
  {
    "Compound": "Cc1ccc(C(=O)NNC(=O)c2c(C)cccc2Cl)cc1C#Cc1ccc(NC(=O)C2CC2)nc1",
    "inhibition at 0.01 µM": "91.1%"
  },
  {
    "Compound": "Cc1ccc(C(=O)NNC(=O)c2c(C)cccc2Cl)cc1C#Cc1ccc(NC(=O)CN2CCC(N(C)C)C2)nc1 (stereo not drawn)",
    "inhibition at 0.01 µM": "81.7%"
  },
  {
    "Compound": "Cc1ccc(C(=O)NNC(=O)c2ccc(CN3CCN(C)CC3)c(C(F)(F)F)c2)cc1C#Cc1ccc(NC(=O)C2CC2)nc1",
    "inhibition at 0.01 µM": "58.3%"
  }
]

Record summary for `Cc1cn(-c2cc(C(=O)NNC(=O)c3ccc(C)c(C#Cc4ccc(NC(=O)C5CC5)nc4)c3)cc(C(F)(F)F)c2)cn1` : reported inhibition at 0.01 µM = 84%

Lab book: inhibition at 0.01 µM of `Cc1ccc(C(=O)NNC(=O)c2c(C)cccc2Cl)cc1C#Cc1ccc(NC(=O)CN2CCC(N(C)C)CC2)nc1` noted as 81.4%

// inhibition at 0.01 µM value for `Cc1ccc(C(=O)NNC(=O)c2c(C)cccc2Cl)cc1C#Cc1ccc(NC(=O)CCN2CCN(C)CC2)nc1` : 85.5%
